Each entry below carries its recorded GI50.
Tested on: SF-295
Assay: NCI tumour cell line growth inhibition, 48 h
The source made the active and inactive calls. No stated cut-off is given here; in the data, active = GI50 up to about 1.1 µM and inactive = higher.
Measurement Type: GI50

Compound	Assay Value
O=C(O)/C=C/c1c2ccc(=O)c(O)c-2oc2c(O)c(O)ccc12	24.4 µM (inactive)
NS(=O)(=O)c1nc(S(=O)(=O)O)c2[nH]cnc2n1	> 100 µM (inactive)
COc1ccc2c(c1)[nH]c1c3ccc(OC)cc3oc(=O)c21	> 100 µM (inactive)
COc1ccc(C2[C@@H](Cl)C(=O)N2c2ccc(OC)cc2)cc1 (some centres undefined)	28.7 µM (inactive)

###

Tested on: MDA-N
Assay: NCI tumour cell line growth inhibition, 48 h
Calls of active or inactive are those of the source. Rule as the data show it: active = GI50 up to about 1.1 µM and inactive = higher.
Labels: active, inactive

Compound	Label Class
Cn1c(=O)oc2cc(C(O)CN3CCN(Cc4ccccn4)CC3)c(Cl)cc21 (stereo not drawn)	inactive
COC(=O)CCC(C)[C@H]1CCC2C3CC[C@@H]4CC5(CC[C@]4(C)C3C[C@H](OC(C)=O)[C@@]21C)OOC1(CCCCC1)OO5 (stereo partly drawn)	inactive
CO[C@H](C)[C@](O)(C(=O)OCC1=CCN2CC[C@@H](O)[C@H]12)C(C)C	inactive
CCNC(=O)/C(=C/c1ccc(OC)cc1)c1cc(OC)c(OC)c(OC)c1	inactive
ClCCCN1CCN(CCCl)CC1	inactive
CC(C)C(=O)/C=C/c1ccc(Cl)cc1Cl	inactive
COc1ccc(SC(C)(SC)c2ccccn2)c(OC)n1 (stereo not drawn)	inactive
CC1=C(C(=O)NNC(=O)Cc2ccccc2)CC(C(=O)NNC(=O)Cc2ccccc2)=C(C)N1	inactive
N=C(N)N/N=C/c1c(-c2ccc([N+](=O)[O-])cc2)nc2n1CCS2	inactive
COc1cc2ncnc(Nc3cccc(Cl)c3)c2cc1OC [TYRPHOSTIN AG-1478]	inactive
Cc1cc(OCC(=O)N/N=C/C(Br)=C/c2ccccc2)nc(SCC(=O)N/N=C/C(Br)=C/c2ccccc2)n1	inactive
C/C=C/C(O)P(=O)(OC)OC (stereo not drawn)	active
CCCn1c(SC)nc(COC(=O)NC)c1COC(=O)NC	inactive
CC(C)Oc1ccc2c(c1)OCC1Cc3ccccc3OC21 (stereo not drawn)	inactive
COC(=O)c1c(O)ccc2c1c1c(n2Cc2ccc(OC)cc2)C(=O)c2ccccc2C1=O	inactive
CCOC(=O)c1nc2cc(F)c(F)cc2nc1NCc1cc(OC)c(OC)c(OC)c1	inactive
COC1=CC(=O)C2=C(C1=O)[C@H]1CC[C@]3(C)C(=O)CC[C@H]3[C@@H]1CC2	inactive
Cc1cc(C)c2c(=N)c3ccccc3n(CCCCCCCCn3c4ccccc4c(=N)c4c(C)cc(C)nc43)c2n1	inactive
Cc1ccc(C(=O)N/N=C(\N=N\c2ccc(C(=O)O)cc2)c2ccc(N(CCC#N)CCC#N)cc2C)cc1	inactive
N#CCCN(CCC#N)c1ccc(C(=N/c2ccc(Cl)cc2)/N=N/c2ccc(Cl)cc2)cc1	inactive
O=C1Cc2c(-c3ccccc3)cc(-c3ccc4ccccc4c3)nc2-c2ccccc2N1	inactive
CNC(=O)OCc1c(COC(=O)NC)c(C)n(-c2ccc(Br)cc2)c1C	inactive
CCCCN1C(=O)c2c(Br)sc(Br)c2C1=O	inactive
